Test system: 926638-142-R-J1-PDC complex spheroid viability;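 note: spheroids exposed to drugs for one week before readout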
Assay: Anticancer human tumor 926638-142-R-J1-PDC patient-derived endometrial carcinoma cell line growth inhibition [POLQ]; active = viability on the fitted dose curve at most 10% of control; inactive = the rest
Details: second compound 3.16 µM; first compound 10 µM
Hi there, use one of these labels in your reply, thanks! active, inactive

For COc1ccc([C@@H](O)c2cc(-c3ncnc4cc(N5CCOCC5)ccc34)c(F)cc2Cl)nn1 + Nc1ccc(C#CCN(C(=O)Cc2ncc(C(F)(F)F)cc2C(F)(F)F)c2ccc(F)cc2)nn1 , which call appears in the assay record? inactive

For C=CC(=O)N1CCN(c2nc(=O)n(-c3c(C)ccnc3C(C)C)c3nc(-c4c(O)cccc4F)c(F)cc23)C(C)C1 (stereo not given) + Cc1cccc(N(C)C(=O)C2C(O)CCN2c2nc(C)cc(C(F)(F)F)c2C#N)c1 , which call appears in the assay record? inactive

For C#Cc1c(F)ccc2cc(O)cc(-c3ncc4c(N5CC6CCC(C5)N6)nc(OCC56CCCN5CC(F)C6)nc4c3F)c12 (stereo not given) + COC1C(OC(N)=O)C(O)C(Oc2ccc3c(O)c(NC(=O)c4ccc(O)c(CC=C(C)C)c4)c(=O)oc3c2C)OC1(C)C , which call appears in the assay record? inactive

For CC1COCCN1c1cc(C2(O)CC3CCC(C2)O3)c2cnn(-c3ccn[nH]3)c2n1 (stereo not given) + COC1C(OC(N)=O)C(O)C(Oc2ccc3c(O)c(NC(=O)c4ccc(O)c(CC=C(C)C)c4)c(=O)oc3c2C)OC1(C)C , which call appears in the assay record? active

For CCCS(=O)(=O)Nc1ccc(F)c(C(=O)c2c[nH]c3ncc(-c4ccc(Cl)cc4)cc23)c1F + Cc1cccc(N(C)C(=O)C2C(O)CCN2c2nc(C)cc(C(F)(F)F)c2C#N)c1 , which call appears in the assay record? inactive

Hello, the source for this data is PubChem BioAssay AID1963826, in case you need it.
